Procedure Text: total protein half-life in vivo (active degradation + dilution); higher = more stable protein
Condition Context: E. coli NCM3722 delta-clpP delta-lon delta-hslV; growth: N-lim chemostat; doubling time 6 h
Reported values of total protein half-life in vivo for individual entries
Readout Name: total protein half-life in vivo (h)

1. MSKIKGNVKWFNESKGFGFITPEDGSKDVFVHFSAIQTNGFKTLAEGQRVEFEITNGAKGPSAANVIAL [P0A972] :: 3.54
2. MSHRDTLFSAPIARLGDWTFDERVAEVFPDMIQRSVPGYSNIISMIGMLAERFVQPGTQVYDLGCSLGAATLSVRRNIHHDNCKIIAIDNSPAMIERCRRHIDAYKAPTPVDVIEGDIRDIAIENASMVVLNFTLQFLEPSERQALLDKIYQGLNPGGALVLSEKFSFEDAKVGELLFNMHHDFKRANGYSELEISQKRSMLENVMLTDSVETHKARLHNAGFEHSELWFQCFNFGSLVALKAEDAA :: 4.36
3. MHPMLNIAVRAARKAGNLIAKNYETPDAVEASQKGSNDFVTNVDKAAEAVIIDTIRKSYPQHTIITEESGELEGTDQDVQWVIDPLDGTTNFIKRLPHFAVSIAVRIKGRTEVAVVYDPMRNELFTATRGQGAQLNGYRLRGSTARDLDGTILATGFPFKAKQYATTYINIVGKLFNECADFRRTGSAALDLAYVAAGRVDGFFEIGLRPWDFAAGELLVREAGGIVSDFTGGHNYMLTGNIVAGNPRVVKAMLANMRDELSDALKR [P0ADG4] :: 5.94
4. MSRRAGTPTAKKVTQLVNVEEHVEGFRQVREAHRRELIDDYVELISDLIREVGEARQVDMAARLGVSQPTVAKMLKRLATMGLIEMIPWRGVFLTAEGEKLAQESRERHQIVENFLLVLGVSPEIARRDAEGMEHHVSEETLDAFRLFTQKHGAK [P0A9F1] :: 5.72
5. MVELKEPLATLWRGKDAFAEVKKLNGEVFRELETRRTLRFELSGKSYFLKWHKGTTLKEIIKNLLSLRMPVLGADREWHAIHRLSDVGVDTMKGIGFGEKGLNPLTRASFIITEDLTPTISLEDYCADWAVNPPDIRVKRMLIARVATMVRKMHTAGINHRDCYICHFLLHLPFTGREDELKISVIDLHRAQIRAKVPRRWRDKDLIGLYFSSMNIGLTQRDIWRFMKVYFGMPLRKILSLEQNLLNMASVKAERIKERTQRKGL :: 6.12
6. MNTVCTHCQAINRIPDDRIEDAAKCGRCGHDLFDGEVINATGETLDKLLKDDLPVVIDFWAPWCGPCRNFAPIFEDVAQERSGKVRFVKVNTEAERELSSRFGIRSIPTIMIFKNGQVVDMLNGAVPKAPFDSWLNESL [P0AGG4] :: 5.02
7. MSSRVLTPDVVGIDALVHDHQTVLAKAEGGVVAVFANNAPAFYAVTPARLAELLALEEKLARPGSDVALDDQLYQEPQAAPVAVPMGKFAMYPDWQPDADFIRLAALWGVALREPVTTEELASFIAYWQAEGKVFHHVQWQQKLARSLQIGRASNGGLPKRDVNTVSEPDSQIPPGFRG [P0A8J2] :: 4.71
8. MMKTVKHLLCCAIAASALISTGVHAASWKDALSSAASELGNQNSTTQEGGWSLASLTNLLSSGNQALSADNMNNAAGILQYCAKQKLASVTDAENIKNQVLEKLGLNSEEQKEDTNYLDGIQGLLKTKDGQQLNLDNIGTTPLAEKVKTKACDLVLKQGLNFIS :: 2.77
9. MEKNNEVIQTHPLVGWDISTVDSYDALMLRLHYQTPNKSEQEGTEVGQTLWLTTDVARQFISILEAGIAKIESGDFQVNEYRRH [P0AB33] :: 4.09
10. MIKQRTLKRIVQATGVGLHTGKKVTLTLRPAPANTGVIYRRTDLNPPVDFPADAKSVRDTMLCTCLVNEHDVRISTVEHLNAALAGLGIDNIVIEVNAPEIPIMDGSAAPFVYLLLDAGIDELNCAKKFVRIKETVRVEDGDKWAEFKPYNGFSLDFTIDFNHPAIDSSNQRYAMNFSADAFMRQISRARTFGFMRDIEYLQSRGLCLGGSFDCAIVVDDYRVLNEDGLRFEDEFVRHKMLDAIGDLFMCGHNIIGAFTAYKSGHALNNKLLQAVLAKQEAWEYVTFQDDAELPLAFKAPSAVLA [P0A725] :: 2.8
11. MAKHLFTSESVSEGHPDKIADQISDAVLDAILEQDPKARVACETYVKTGMVLVGGEITTSAWVDIEEITRNTVREIGYVHSDMGFDANSCAVLSAIGKQSPDINQGVDRADPLEQGAGDQGLMFGYATNETDVLMPAPITYAHRLVQRQAEVRKNGTLPWLRPDAKSQVTFQYDDGKIVGIDAVVLSTQHSEEIDQKSLQEAVMEEIIKPILPAEWLTSATKFFINPTGRFVIGGPMGDCGLTGRKIIVDTYGGMARHGGGAFSGKDPSKVDRSAAYAARYVAKNIVAAGLADRCEIQVSYAIGVAEPTSIMVETFGTEKVPSEQLTLLVREFFDLRPYGLIQMLDLLHPIYKETAAYGHFGREHFPWEKTDKAQLLRDAAGLK [P0A817] :: 2.78
12. MKLKNTLLASALLSAMAFSVNAATELTPEQAAAVKPFDRVVVTGRFNAIGEAVKAVSRRADKEGAASFYVVDTSDFGNSGNWRVVADLYKADAEKAEETSNRVINGVVELPKDQAVLIEPFDTVTVQGFYRSQPEVNDAITKAAKAKGAYSFYIVRQIDANQGGNQRITAFIYKKDAKKRIVQSPDVIPADSEAGRAALAAGGEAAKKVEIPGVATTASPSSEVGRFFETQSSKGGRYTVTLPDGTKVEELNKATAAMMVPFDSIKFSGNYGNMTEVSYQVAKRAAKKGAKYYHITRQWQERGNNLTVSADLYK :: 5.73
13. MTETIKVSESLELHAVAENHVKPLYQLICKNKTWLQQSLNWPQFVQSEEDTRKTVQGNVMLHQRGYAKMFMIFKEDELIGVISFNRIEPLNKTAEIGYWLDESHQGQGIISQALQALIHHYAQSGELRRFVIKCRVDNPQSNQVALRNGFILEGCLKQAEFLNDAYDDVNLYARIIDSQ :: 4.21
